# method: HUVEC growth inhibition – cell-based, human, primary screen (AID 575);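 also: 100% = median of untreated cell wells with 0.1% DMSO on each plate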
# experimental_setup: HUVEC proliferation, CellTiter-Glo luminescence, 72 h; at 10 µM; stronger effect = lower value
Reported viability values follow for various compounds
Dear colleague, please return just the value in %, with no unit written.

Take a look at these entries with their results.
Looking for the measured viability of `Cc1cc(OCC(=O)N2CCOCC2)cc2oc(=O)c3ccccc3c12` , can you help?
109

# iterate: `O=C(Nc1ccc(-c2noc(-c3cccs3)n2)cc1)c1cccnc1`
54

Now give it for `CCn1c(=O)c(C(=O)Nc2cccnc2)c(O)c2ccccc21` too.
113

Moving on to O=C(Cc1ccccc1)N1CCCC(c2nc(-c3cccs3)no2)C1 (stereo not drawn)
95.5

What would you report for `CCOC(=O)c1ccccc1NC(=O)CSc1nnc(COc2ccccc2C)n1C` ?
82.6

New cases:
Given the compound `CCOC(=O)N1CCN(C(=O)COc2ccc(Br)cc2Cl)CC1` , what is its reported viability?
117

Record: `COc1ccc(C(=O)N(CCN2CCOCC2)CC(=O)NC2CCCC2)cc1OC`
111

Let us now turn to `Cc1ncoc1C(=O)Nc1ccccc1C(N)=O`
106

====

# method: reducers of endogenous Her2 protein level, primary screen, SKBR3 breast tumor cells, AlphaScreen, ATP viability (AID 461);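 also: percent of carrier control wells set as 100% viability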
# experimental_setup: 18-24 h, measured here: SKBR3 viability, ATP luminescence, at 10 µM
Measured viability values are reported for all entries that follow.
Report as a plain number; the unit % is understood.

What value of viability has been recorded for this entry: CCOC(=O)CSC1=C(C#N)C(=O)NC(c2ccc(OC)c(OC)c2)S1 (stereo unspecified)
104

Same again, this time with `COC(=O)c1ccc(C)c(NS(=O)(=O)c2ccc3c(c2)OCCO3)c1`
87.5

Next entry: `CCNC(=O)N1c2ccc(OCC)cc2C(C)=CC1(C)C`
95.5

Others:
Entry under review: O=C(NC1CCS(=O)(=O)C1)N1CCCCC1 (stereo unspecified) . Reported viability?
102

Please do the same for `COc1ccc2nc(CC(C)(C)CC(=O)O)c[n+]([O-])c2c1` as well.
109

====

# method: reversal of MRP1-mediated doxorubicin resistance, pilot screen, H69AR cells, doxorubicin co-treatment (AID 601)
# experimental_setup: H69AR cells, CellTiter-Glo, 72 h; compound alone cytotoxicity; at 10 µM
Entries annotated with measured viability
Number only, in %; omit the unit.

Reported viability, compound `O=C(Cn1c(=O)n(Cc2ccc3c(c2)OCO3)c(=O)c2ccccc21)N1CCCc2ccccc21` : ____
82.2

Shifting focus to the compound that follows.
Fill in: viability of `O=C(CCn1nc(-c2ccc(Cl)cc2)ccc1=O)N1CCN(c2ccccn2)CC1` is ___
91.1

====

differential viability (reversal) overview
# method: reversal of MRP1-mediated doxorubicin resistance, pilot screen, H69AR cells, doxorubicin co-treatment (AID 601)
# experimental_setup: H69AR cells + 2 uM doxorubicin, CellTiter-Glo, 72 h; at 10 µM; stronger effect = higher value
Unit % implied. Number only.

// solved cases for differential viability (reversal) follow
Which differential viability (reversal) is listed for `CCOC(=O)c1cccc(NC(=O)CS(=O)(=O)Cc2nc(-c3cccc(OC)c3)oc2C)c1` ?
-7.47

Note, next up: `Cn1c(CN2CCOCC2)nc2cc(NC(=O)c3ccccc3Cl)ccc21`
-2.36

Follow-up item: `CC(C)OC(=O)CSc1nnc(-c2ccc(C(C)(C)C)cc2)n1N`
5.61

What about CC(C)Cn1c(CN2CCCCC2C)nc2c1c(=O)n(C)c(=O)n2C (stereo unspecified) ?
16.7

Likewise for OC(COc1ccccc1)CN1C2=NCCCN2c2ccccc21 (stereo unspecified) ?
7.67

Now for the molecule whose differential viability (reversal) we want.
So what does the record say about differential viability (reversal) for `CCn1c(=S)ccc2ccc(OC)cc21` ?
13.2
